- Measured on: Estrogen receptor (Homo sapiens)
- Protocol notes: Antagonist activity at full length ERalpha (unknown origin) assessed as reduction in E2 induced response after 24 hrs by cell based ERE-driven luciferase reporter gene assay
pEC50: −log10 of the molar value.
Parameter measured: pEC50

Exercise: Which pEC50 value belongs to O/N=C1\CCCC(c2ccc(O)cc2)CC1 (racemic) ?
Solution: < 5.00

Exercise: Now give it for OCC1CCCC(c2ccc(O)cc2)CC1 (racemic) too.
Solution: < 5.00

Exercise: Now give it for Oc1ccc(C2CCCC(O)CC2)cc1 (racemic) too.
Solution: < 5.00

Exercise: Now give it for OC[C@@H]1CCC[C@@H](c2ccc(O)cc2)CC1 (stereo in doubt) too.
Solution: < 5.00

Exercise: Now give it for OC[C@H]1CCC[C@@H](c2ccc(O)cc2)CC1 too.
Solution: < 5.00

Exercise: Now give it for OC[C@@H]1CCC[C@H](c2ccc(O)cc2)CC1 too.
Solution: < 4.94

Exercise: Now give it for OC[C@H]1CCC[C@H](c2ccc(O)cc2)CC1 (stereo in doubt) too.
Solution: < 4.45

Exercise: Now give it for OCCC1CCCC(c2ccc(O)cc2)CC1 (racemic) too.
Solution: < 5.00

====

- Measured on: Estrogen receptor (Homo sapiens, UniProt P03372)
- Sequence (P03372 whole entry, the tested form may be a part): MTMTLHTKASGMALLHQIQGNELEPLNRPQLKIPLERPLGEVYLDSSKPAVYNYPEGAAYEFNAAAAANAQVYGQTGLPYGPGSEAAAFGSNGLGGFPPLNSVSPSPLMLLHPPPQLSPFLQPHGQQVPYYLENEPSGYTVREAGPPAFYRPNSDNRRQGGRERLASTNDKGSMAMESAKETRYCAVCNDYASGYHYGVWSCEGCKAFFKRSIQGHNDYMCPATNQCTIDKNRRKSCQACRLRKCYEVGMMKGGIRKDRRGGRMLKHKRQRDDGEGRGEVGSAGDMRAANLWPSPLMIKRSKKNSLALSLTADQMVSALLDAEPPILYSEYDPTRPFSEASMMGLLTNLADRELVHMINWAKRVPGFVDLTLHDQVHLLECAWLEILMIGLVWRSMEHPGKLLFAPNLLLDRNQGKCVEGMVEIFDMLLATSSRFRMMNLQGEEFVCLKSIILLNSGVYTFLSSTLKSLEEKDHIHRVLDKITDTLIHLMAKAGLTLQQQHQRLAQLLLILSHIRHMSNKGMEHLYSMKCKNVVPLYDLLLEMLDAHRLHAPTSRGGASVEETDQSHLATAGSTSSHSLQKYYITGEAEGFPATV
- Protocol notes: Inhibition of fluorescein-tagged estrogen binding to GST-tagged ERalpha (unknown origin) ligand binding domain after 1 hr by LanthaScreen TR-FRET assay
Parameter measured: pEC50
// pEC50: -log10(molar conc.)

Exercise: Could you share what pEC50 was measured for OC[C@@H]1CCC[C@@H](c2ccc(O)cc2)CC1 (stereo in doubt) , tested on Estrogen receptor (Homo sapiens, UniProt P03372)?
Solution: 7.21

Exercise: Now give it for OC[C@H]1CCC[C@@H](c2ccc(O)cc2)CC1 too.
Solution: 6.66

Exercise: Now give it for OC[C@H]1CCC[C@H](c2ccc(O)cc2)CC1 (stereo in doubt) too.
Solution: 7.02

Exercise: Now give it for OCC1CCCC(c2ccc(O)cc2)CC1 (racemic) too.
Solution: 7.00

Exercise: Now give it for OC[C@@H]1CCC[C@H](c2ccc(O)cc2)CC1 too.
Solution: 6.70

====

- Measured on: Estrogen receptor beta (Homo sapiens, UniProt Q92731)
- Sequence (Q92731 whole entry, the tested form may be a part): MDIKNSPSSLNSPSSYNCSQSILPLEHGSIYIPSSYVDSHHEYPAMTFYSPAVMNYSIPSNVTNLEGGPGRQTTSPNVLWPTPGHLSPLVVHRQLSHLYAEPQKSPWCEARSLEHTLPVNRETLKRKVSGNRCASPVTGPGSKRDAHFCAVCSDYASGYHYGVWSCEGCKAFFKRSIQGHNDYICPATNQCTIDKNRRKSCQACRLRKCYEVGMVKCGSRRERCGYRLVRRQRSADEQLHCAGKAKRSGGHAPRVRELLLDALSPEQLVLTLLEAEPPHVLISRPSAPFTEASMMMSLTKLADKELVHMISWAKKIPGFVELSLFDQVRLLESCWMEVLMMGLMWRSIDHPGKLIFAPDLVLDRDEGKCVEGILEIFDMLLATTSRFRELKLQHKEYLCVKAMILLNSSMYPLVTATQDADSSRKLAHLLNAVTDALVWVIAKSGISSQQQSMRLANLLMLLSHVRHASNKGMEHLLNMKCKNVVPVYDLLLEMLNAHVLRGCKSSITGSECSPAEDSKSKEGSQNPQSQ
- Protocol notes: Inhibition of fluorescein-tagged estrogen binding to GST-tagged ERbeta (unknown origin) ligand binding domain after 1 hr by LanthaScreen TR-FRET assay
pEC50: −log10 of the molar value.
Label scheme for pEC50: lower than 7 is No, 7 and above is Yes.

Exercise: Does the compound Oc1ccc(C23CCCC(CC2)CO3)cc1 (racemic) have recorded pEC50 that is 7 or more?
Solution: No

Exercise: Now give it for OC[C@H]1CCC[C@H](c2ccc(O)cc2)CC1 (stereo in doubt) too.
Solution: Yes

Exercise: Now give it for OCC1CCCC(c2ccc(O)cc2)CC1 (racemic) too.
Solution: Yes

Exercise: Now give it for OC[C@@H]1CCC[C@@H](c2ccc(O)cc2)CC1 (stereo in doubt) too.
Solution: Yes

====

Provide the recorded pEC50 for the entries that follow.
- Measured on: Estrogen receptor beta (Homo sapiens, UniProt Q92731)
- Protocol notes: Inhibition of fluorescein-tagged estrogen binding to GST-tagged ERbeta (unknown origin) ligand binding domain after 1 hr by LanthaScreen TR-FRET assay
// pEC50: -log10(molar conc.)

Exercise: Which pEC50 value belongs to Oc1ccc(C2CCCC(O)CC2)cc1 (racemic) ?
Solution: 7.38

Exercise: Now give it for O=C1CCCC(c2ccc(O)cc2)CC1 (racemic) too.
Solution: 6.36

Exercise: Now give it for OCCC1CCCC(c2ccc(O)cc2)CC1 (racemic) too.
Solution: 7.12

Exercise: Now give it for O/N=C1\CCCC(c2ccc(O)cc2)CC1 (racemic) too.
Solution: 6.22
